- Tested on: MCF7 complex spheroid growth, % test/control
- assay_overview: Anticancer human tumor MCF7 cell line growth inhibition [Asc];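 further: spheroids exposed to compounds for 7 days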;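 on viability, T/C: 100% = DMSO vehicle control wells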
- particulars: second compound 0.0316 µM; first compound 0.00316 µM; stronger effect = lower value
For each entry below, report its viability, T/C value.
API: value field is a number in %; no unit string.

Find the recorded viability, T/C belonging to NC1CCC(NC2CC2c2ccccc2)CC1 (configuration not stated) + CNC(C)C(=O)NC1CN(S(=O)(=O)c2cccc(S(=O)(=O)N3CCC4CCC(C(=O)NC(c5ccccc5)c5ccccc5)N4C(=O)C(NC(=O)C(C)NC)C3)c2)CCC2CCC(C(=O)NC(c3ccccc3)c3ccccc3)N2C1=O and report it.
10.8

Consider next the molecule COc1c(OCCCN2CCOCC2)ccc2c3n(c(=NC(=O)c4cnc(N)nc4)nc12)CCN3 + CNC(C)C(=O)NC1CN(S(=O)(=O)c2cccc(S(=O)(=O)N3CCC4CCC(C(=O)NC(c5ccccc5)c5ccccc5)N4C(=O)C(NC(=O)C(C)NC)C3)c2)CCC2CCC(C(=O)NC(c3ccccc3)c3ccccc3)N2C1=O in the same way.
12.6

###

For each entry below, report its viability, T/C value.
- System: MCF7 complex spheroid growth, % test/control
- assay_overview: Anticancer human tumor MCF7 cell line growth inhibition [Asc];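 further: spheroids exposed to compounds for 7 days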;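 on viability, T/C: 100% = DMSO vehicle control wells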
- particulars: second compound 1 µM; first compound 10 µM; stronger effect = lower value
API: value field is a number in %; no unit string.

Find the recorded viability, T/C belonging to O=C(c1cc(Cc2n[nH]c(=O)c3ccccc23)ccc1F)N1CCN(C(=O)C2CC2)CC1 + CNC(C)C(=O)NC1CN(S(=O)(=O)c2cccc(S(=O)(=O)N3CCC4CCC(C(=O)NC(c5ccccc5)c5ccccc5)N4C(=O)C(NC(=O)C(C)NC)C3)c2)CCC2CCC(C(=O)NC(c3ccccc3)c3ccccc3)N2C1=O and report it.
14.3

Consider next the molecule C=C(F)C(=O)N1CCN(c2nc(OCC3CCCN3C)nc3c2CCN(c2cccc4cccc(Cl)c24)C3)CC1CC#N (configuration not stated) + Cc1c(S(C)(=O)=O)c(-c2cc(F)cc(N3CCN(c4ccc(NS(=O)(=O)c5ccc(NC(CCN6CCC(C(=O)OCCCP(=O)(O)O)CC6)CSc6ccccc6)c(S(=O)(=O)C(F)(F)F)c5)cc4)CC3)c2)c(-c2ccc(Cl)cc2)n1C(C)C in the same way.
0.17

###

- Test system: MCF7 complex spheroid growth, % test/control
- assay_overview: Anticancer human tumor MCF7 cell line growth inhibition [Asc];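 further: spheroids exposed to compounds for 7 days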;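 on viability, T/C: 100% = DMSO vehicle control wells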
- particulars: second compound 3.16 µM; first compound 1 µM; stronger effect = lower value
- Source text: Multicellular complex tumor spheroid response to apoptosis pathway targeting inhibitors Alrizomadlin, Pelcitoclax, and Dasminapant in combination with a variety of drugs and investigational agents in selected tumor cell lines […] Compounds. […] If the clinical Cmax for an agent had not been determined, the highest concentration tested was 10 microM. […]
result_type: viability, T/C (%)
API: value field is a number in %; no unit string.

Find the recorded viability, T/C belonging to O=C(c1cc(Cc2n[nH]c(=O)c3ccccc23)ccc1F)N1CCN(C(=O)C2CC2)CC1 + Cc1c(S(C)(=O)=O)c(-c2cc(F)cc(N3CCN(c4ccc(NS(=O)(=O)c5ccc(NC(CCN6CCC(C(=O)OCCCP(=O)(O)O)CC6)CSc6ccccc6)c(S(=O)(=O)C(F)(F)F)c5)cc4)CC3)c2)c(-c2ccc(Cl)cc2)n1C(C)C and report it.
93.6

Consider next the molecule CCN1CCN(Cc2ccc(Nc3ncc(F)c(-c4cc(F)c5nc(C)n(C(C)C)c5c4)n3)nc2)CC1 + Cc1c(S(C)(=O)=O)c(-c2cc(F)cc(N3CCN(c4ccc(NS(=O)(=O)c5ccc(NC(CCN6CCC(C(=O)OCCCP(=O)(O)O)CC6)CSc6ccccc6)c(S(=O)(=O)C(F)(F)F)c5)cc4)CC3)c2)c(-c2ccc(Cl)cc2)n1C(C)C in the same way.
73.1

Consider next the molecule C=CC(=O)N1CCN(c2nc(=O)n(-c3c(C)ccnc3C(C)C)c3nc(-c4c(O)cccc4F)c(F)cc23)C(C)C1 (stereo unspecified) + Cc1c(S(C)(=O)=O)c(-c2cc(F)cc(N3CCN(c4ccc(NS(=O)(=O)c5ccc(NC(CCN6CCC(C(=O)OCCCP(=O)(O)O)CC6)CSc6ccccc6)c(S(=O)(=O)C(F)(F)F)c5)cc4)CC3)c2)c(-c2ccc(Cl)cc2)n1C(C)C in the same way.
94.1

Consider next the molecule O=C(c1ccc(F)c(F)c1Nc1ccc(I)cc1F)N1CC(O)([C@@H]2CCCCN2)C1 + Cc1c(S(C)(=O)=O)c(-c2cc(F)cc(N3CCN(c4ccc(NS(=O)(=O)c5ccc(NC(CCN6CCC(C(=O)OCCCP(=O)(O)O)CC6)CSc6ccccc6)c(S(=O)(=O)C(F)(F)F)c5)cc4)CC3)c2)c(-c2ccc(Cl)cc2)n1C(C)C in the same way.
81.8

Consider next the molecule CNC(C)C(=O)NC1CN(S(=O)(=O)c2cccc(S(=O)(=O)N3CCC4CCC(C(=O)NC(c5ccccc5)c5ccccc5)N4C(=O)C(NC(=O)C(C)NC)C3)c2)CCC2CCC(C(=O)NC(c3ccccc3)c3ccccc3)N2C1=O (stereo unspecified) + Cc1c(S(C)(=O)=O)c(-c2cc(F)cc(N3CCN(c4ccc(NS(=O)(=O)c5ccc(NC(CCN6CCC(C(=O)OCCCP(=O)(O)O)CC6)CSc6ccccc6)c(S(=O)(=O)C(F)(F)F)c5)cc4)CC3)c2)c(-c2ccc(Cl)cc2)n1C(C)C in the same way.
20.1

Consider next the molecule C#Cc1c(F)ccc2cc(O)cc(-c3ncc4c(N5CC6CCC(C5)N6)nc(OCC56CCCN5CC(F)C6)nc4c3F)c12 (stereo unspecified) + Cc1c(S(C)(=O)=O)c(-c2cc(F)cc(N3CCN(c4ccc(NS(=O)(=O)c5ccc(NC(CCN6CCC(C(=O)OCCCP(=O)(O)O)CC6)CSc6ccccc6)c(S(=O)(=O)C(F)(F)F)c5)cc4)CC3)c2)c(-c2ccc(Cl)cc2)n1C(C)C in the same way.
72.5

###

For each entry below, report its pIC50 value.
- Tested on: MCF7 complex spheroid growth, % test/control
- assay_overview: Anticancer human tumor MCF7 cell line growth inhibition [Asc];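 further: spheroids exposed to compounds for 7 days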
- particulars: curve of first compound; second compound 0.01 µM
pIC50: −log10 of the molar value.

Lab note: need pIC50 for COc1c(OCCCN2CCOCC2)ccc2c3n(c(=NC(=O)c4cnc(N)nc4)nc12)CCN3 + CNC(C)C(=O)NC1CN(S(=O)(=O)c2cccc(S(=O)(=O)N3CCC4CCC(C(=O)NC(c5ccccc5)c5ccccc5)N4C(=O)C(NC(=O)C(C)NC)C3)c2)CCC2CCC(C(=O)NC(c3ccccc3)c3ccccc3)N2C1=O on MCF7 complex spheroid growth, % test/control, anyone have it?
> 8.50

Consider next the molecule C=C(F)C(=O)N1CCN(c2nc(OCC3CCCN3C)nc3c2CCN(c2cccc4cccc(Cl)c24)C3)CC1CC#N (stereo not drawn) + CNC(C)C(=O)NC1CN(S(=O)(=O)c2cccc(S(=O)(=O)N3CCC4CCC(C(=O)NC(c5ccccc5)c5ccccc5)N4C(=O)C(NC(=O)C(C)NC)C3)c2)CCC2CCC(C(=O)NC(c3ccccc3)c3ccccc3)N2C1=O in the same way.
> 7.50

Consider next the molecule Cn1ncnc1[C@H]1c2n[nH]c(=O)c3cc(F)cc(c23)N[C@@H]1c1ccc(F)cc1 + CNC(C)C(=O)NC1CN(S(=O)(=O)c2cccc(S(=O)(=O)N3CCC4CCC(C(=O)NC(c5ccccc5)c5ccccc5)N4C(=O)C(NC(=O)C(C)NC)C3)c2)CCC2CCC(C(=O)NC(c3ccccc3)c3ccccc3)N2C1=O in the same way.
> 9.50

###

- Tested on: MCF7 complex spheroid growth, % test/control
- assay_overview: Anticancer human tumor MCF7 cell line growth inhibition [Asc];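 further: spheroids exposed to compounds for 7 days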;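 on viability, T/C: 100% = DMSO vehicle control wells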
- particulars: second compound 0.01 µM; first compound 0.01 µM; stronger effect = lower value
result_type: viability, T/C

Find the recorded viability, T/C belonging to NC1CCC(NC2CC2c2ccccc2)CC1 (stereo not given) + CNC(C)C(=O)NC1CN(S(=O)(=O)c2cccc(S(=O)(=O)N3CCC4CCC(C(=O)NC(c5ccccc5)c5ccccc5)N4C(=O)C(NC(=O)C(C)NC)C3)c2)CCC2CCC(C(=O)NC(c3ccccc3)c3ccccc3)N2C1=O and report it.
10.7%

Consider next the compound COc1c(OCCCN2CCOCC2)ccc2c3n(c(=NC(=O)c4cnc(N)nc4)nc12)CCN3 + CNC(C)C(=O)NC1CN(S(=O)(=O)c2cccc(S(=O)(=O)N3CCC4CCC(C(=O)NC(c5ccccc5)c5ccccc5)N4C(=O)C(NC(=O)C(C)NC)C3)c2)CCC2CCC(C(=O)NC(c3ccccc3)c3ccccc3)N2C1=O in the same way.
9.75%

Consider next the compound O=C(c1ccc(F)c(F)c1Nc1ccc(I)cc1F)N1CC(O)([C@@H]2CCCCN2)C1 + CNC(C)C(=O)NC1CN(S(=O)(=O)c2cccc(S(=O)(=O)N3CCC4CCC(C(=O)NC(c5ccccc5)c5ccccc5)N4C(=O)C(NC(=O)C(C)NC)C3)c2)CCC2CCC(C(=O)NC(c3ccccc3)c3ccccc3)N2C1=O in the same way.
14.8%

Consider next the compound Cn1ncnc1[C@H]1c2n[nH]c(=O)c3cc(F)cc(c23)N[C@@H]1c1ccc(F)cc1 + CNC(C)C(=O)NC1CN(S(=O)(=O)c2cccc(S(=O)(=O)N3CCC4CCC(C(=O)NC(c5ccccc5)c5ccccc5)N4C(=O)C(NC(=O)C(C)NC)C3)c2)CCC2CCC(C(=O)NC(c3ccccc3)c3ccccc3)N2C1=O in the same way.
12.8%

Consider next the compound CCN1CCN(Cc2ccc(Nc3ncc(F)c(-c4cc(F)c5nc(C)n(C(C)C)c5c4)n3)nc2)CC1 + CNC(C)C(=O)NC1CN(S(=O)(=O)c2cccc(S(=O)(=O)N3CCC4CCC(C(=O)NC(c5ccccc5)c5ccccc5)N4C(=O)C(NC(=O)C(C)NC)C3)c2)CCC2CCC(C(=O)NC(c3ccccc3)c3ccccc3)N2C1=O in the same way.
10.8%
